Where these numbers come from: patent US20130131075A1

Target sequence: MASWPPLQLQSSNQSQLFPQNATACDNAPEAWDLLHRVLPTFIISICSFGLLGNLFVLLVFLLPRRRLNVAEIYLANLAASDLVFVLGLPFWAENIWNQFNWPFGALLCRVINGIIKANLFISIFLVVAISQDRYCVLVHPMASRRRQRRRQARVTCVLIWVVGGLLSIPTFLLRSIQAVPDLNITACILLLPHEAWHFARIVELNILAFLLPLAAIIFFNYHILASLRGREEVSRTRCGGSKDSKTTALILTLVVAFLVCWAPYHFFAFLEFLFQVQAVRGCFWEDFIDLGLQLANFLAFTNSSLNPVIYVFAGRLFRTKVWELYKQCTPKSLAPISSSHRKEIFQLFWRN
pKi: −log10 of the molar value.
Reported pKi values are given for each entry in this list.
observed_property: pKi

> print(dat)
                                   molecule  observed.property  observed.measurement
1  CCNC(=O)NC1(C(=O)NCc2ccc(Nc3ccccc3C(F)(F)F)cc2)CC1                pKi                  6.87
2  COc1ncc(C(=O)NC2(C(=O)NCc3ccc(Nc4ccc(Br)cc4C(F)(F)F)cn3)CC2)cn1                pKi                  8.17
3  COc1ncc(C(=O)N[C@@]2(C(=O)NCc3ccc(Nc4ccc(F)cc4C(F)(F)F)cc3)CCOC2)cn1                pKi                  7.35
4  CC(NC(=O)C1(NC(=O)c2cncnc2)CC1)c1ccc(Nc2ccc(F)cc2C(F)(F)F)cn1 (stereo not shown)                pKi                  8.70

* * *

Molecular target: cynomolgus BK1-receptor (Macaca fascicularis, UniProt Q3BCU0)
Construct: expressed in transfected cells; host or cells: CHO cells (homogenate)
Experiment: cynoBK1-receptor binding assay
Settings: at 10 μgmol/L; CHO cells expressing cynomolgus BK1-receptor, radioligand kallidine (DesArg10,Leu9)
Reported inhibition at 10 µM values are given for each entry in this list.
observed_property: inhibition at 10 µM (%)

> print(dat)
                                   compound    observed.property  observed.measurement
1  COc1cccc(C(=O)N[C@@]2(C(=O)NCc3ccc(Nc4ccccc4C(F)(F)F)cc3)CCOC2)c1  inhibition at 10 µM                   103
2  O=C(NC1(C(=O)NCc2ccc(Nc3ccc(F)cc3C(F)(F)F)cn2)CC1)c1cnc2[nH]cnc2c1  inhibition at 10 µM                   106
3  O=C(NC1(C(=O)NCc2ccc(Nc3ccccc3)cc2)CC1)c1cncnc1  inhibition at 10 µM                    65
4  O=C(NC1(C(=O)NCc2ccc(Nc3ccccc3C(F)(F)F)cn2)CCCCC1)c1cncnc1  inhibition at 10 µM                    56
5  Cc1ncc(C(=O)N[C@@]2(C(=O)NCc3ccc(Nc4ccccc4C(F)(F)F)cc3)CCOC2)cn1  inhibition at 10 µM                   113
6  O=C(CC(F)(F)F)NC1(C(=O)NCc2ccc(Nc3ccc(F)cc3C(F)(F)F)cc2)CC1  inhibition at 10 µM                   111
7  O=C(NC1(C(=O)NCc2ccc(Nc3ccc(C(F)(F)F)cc3C(F)(F)F)cn2)CC1)c1cncnc1  inhibition at 10 µM                    63
8  O=C1CCCC(C(=O)N[C@@]2(C(=O)NCc3ccc(Nc4ccccc4C(F)(F)F)cc3)CCOC2)C1 (stereo partly drawn)  inhibition at 10 µM                    42
9  N#Cc1ccc(Nc2ccc(CNC(=O)C3(NC(=O)c4cncnc4)CC3)nc2)c(C(F)(F)F)c1  inhibition at 10 µM                    81
